system: Staphylococcus sp.; assay: in vitro antibacterial evaluation, MIC by broth dilution; assay type: cell-based; conditions: broth dilution, 18 hours at 35° C.; strain GC 4551
The following compounds are listed with their measured MIC Coagulase Negative Staphylococcus (GC 4551) values.
parameter measured: MIC Coagulase Negative Staphylococcus (GC 4551) (µg/mL)

CC(c1ccccc1)C1NC(=O)CNC(=O)C(CO)NC(=O)C(C(O)C2CNC(=N)N2C2OC(CO)C(O)C(O)C2O)NC(=O)C(C(O)C2CNC(=N)N2)NC(=O)C(Cc2ccc(OC3OC(CO)C(OC4OC5COC(c6ccc(S(C)(=O)=O)cc6)OC5C(O)C4O)C(O)C3O)cc2)NC1=O (stereo not shown) | 32
COc1ccc(COCC2OC(OC3C(CO)OC(Oc4ccc(CC5NC(=O)C(C(C)c6ccccc6)NC(=O)CNC(=O)C(CO)NC(=O)C(C(O)C6CNC(=N)N6C6OC(CO)C(O)C(O)C6O)NC(=O)C(C(O)C6CNC(=N)N6)NC5=O)cc4)C(O)C3O)C(O)C(O)C2O)cc1F (stereo not shown) | 4
CC(C)=CCOc1cccc(C2OCC3OC(OC4C(CO)OC(Oc5ccc(CC6NC(=O)C(C(C)c7ccccc7)NC(=O)CNC(=O)C(CO)NC(=O)C(C(O)C7CNC(=N)N7C7OC(CO)C(O)C(O)C7O)NC(=O)C(C(O)C7CNC(=N)N7)NC6=O)cc5)C(O)C4O)C(O)C(O)C3O2)c1 (stereo not shown) | 16
